System: Simplicillium lamellicola
Assay: Antifungal activity against Verticillium lamellicola
Assay type: functional
Hi there, I'd appreciate the recorded MIC for every entry that follows.
Give bare numbers, in µg/mL.

Consider the reported MIC for these compounds:
[
  {
    "smilesRepresentation": "CO/C=C(/C(=O)OC)c1cc(Cl)ccc1Cn1cc(-c2ccccc2)nn1",
    "assayedSystem": "Simplicillium lamellicola",
    "readoutUnit": "µg/mL",
    "MIC": 1500
  },
  {
    "smilesRepresentation": "CO/C=C(/C(=O)OC)c1cc(Cl)ccc1Cn1cc(S(=O)(=O)c2ccc(C)cc2)nn1",
    "assayedSystem": "Simplicillium lamellicola",
    "readoutUnit": "µg/mL",
    "MIC": 500
  },
  {
    "smilesRepresentation": "CO/C=C(/C(=O)OC)c1cc(Cl)ccc1Cn1cc(-c2ccccc2C=O)nn1",
    "assayedSystem": "Simplicillium lamellicola",
    "readoutUnit": "µg/mL",
    "MIC": 1000
  },
  {
    "smilesRepresentation": "CO/C=C(/C(=O)OC)c1cc(Cl)ccc1Cn1cc(C2=CCCCC2)nn1",
    "assayedSystem": "Simplicillium lamellicola",
    "readoutUnit": "µg/mL",
    "MIC": 1500
  }
]

Input line: Consider the compound C#CS(=O)(=O)c1ccc(C)cc1 and give its recorded MIC.
Output line: 4
